system.name: T1, SNAP tagged-CXC4 receptor labeled with terbium (Tag-lite CXCR4 cells, HEK293) (UniProt P61073 1-352, SNAP tag labeled with terbium fluorescent dye)
T1 construct: whole, on cells; Bought frozen cells (PerkinElmer-CisBio), HEK293 transiently expressing the receptor; also called terbium labeled CXCR receptor
test.method.notes: HTRF competition on Tag-lite CXCR4 HEK293 cells; competitor labelled CXCL12
Square brackets hold non-standard residues; d marks the D form. Ends that are not written are not given here.
value.type: Percent Inhibition of CXCR4/CXCL12 Binding (400 nM peptide)

binder	result
RRYHHSVRSSLRPYTK [SEQ ID NO: 10]	-8%
LERYHHSVRSSLRPFTK [SEQ ID NO: 60]	60%
LERYHHSVRTSLRPYTK [SEQ ID NO: 73]	87%
LERYHHS[dA]RSSLRPYSK [SEQ ID NO: 78]	72%
